tested-on: full-length H5 A/Vietnam/1203/2004 HA expressed on 293T cells (influenza A virus A/Vietnam/1203/2004 (H5N1))
assay-protocol: cell-based or functional assay
Each item that follows carries a reported IC50 of pseudo virus neutralization H5N1 VN/04.
measurement-label: IC50 of pseudo virus neutralization H5N1 VN/04

binder	result
S48 (antibody, V domains shown) VH: EVQLVESGGGLVQPGGSLRLSCAVSGFTIGDGSIHWVRQAPGKGLEWVASIGPYGGSTYYADSVKGRFTISADTSKNTAYLQMNSLRAEDTAVYYCARFHYGYWNNMDYWGQGTLVTVSS VL: DIQMTQSPSSLSASVGDRVTITCRASQDVGWWVAWYQQKPGKAPKLLIYGTRWLYSGVPSRFSGSGSGTDFTLTISSVQPEDFATYYCQQYYSGPITFGQGTKVEIKR	> 200 µg/mL
P58 (antibody, V domains shown) VH: EVQLVESGGGLVQPGGSLRLSCAASGFTIGGGGIHWVRQAPGKGLEWVAWIWPYWGYTYYADSVKGRFTISADTSKNTAYLQMNSLRAEDTAVYYCARFNSYSYSGVMDYWGQGTLVTVSS VL: DIQMTQSPSSLSASVGDRVTITCRASQDVYSYVAWYQQKPGKAPKLLISSSRGLYSGVPSRFSGSGSGTDFTLTISSLQPEDFATYYCQQYSSFPITFGQGTKVEIKR	> 200 µg/mL
S40 (antibody, V domains shown) VH: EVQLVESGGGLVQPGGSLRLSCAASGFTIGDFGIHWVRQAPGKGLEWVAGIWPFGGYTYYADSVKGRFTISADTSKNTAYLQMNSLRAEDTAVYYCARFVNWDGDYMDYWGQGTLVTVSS VL: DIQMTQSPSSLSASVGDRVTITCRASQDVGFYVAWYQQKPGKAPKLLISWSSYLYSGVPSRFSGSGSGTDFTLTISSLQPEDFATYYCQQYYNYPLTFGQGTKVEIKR	> 200 µg/mL
